Taken from ChEMBL document CHEMBL4689842.

Give Population Apoptotic (%) for every item shown.
Test system: U2OS
Test: Multiplex assay against U2OS
Format: toxicity, cell-based
Settings: human, 24 h, 10 µM, compound concentration 10 uM, replicate 2
Give bare numbers, in %.

Below are worked cases with known answers.
{"SMILES DATA": "Cl.NC[C@@H]1O[C@H](C23CC4CC(CC(C4)C2)C3)Cc2c1ccc(O)c2O", "RECORDED NUMBER": 92}
{"SMILES DATA": "Cc1c(Nc2ccc(S(=O)(=O)N3CCN(C)CC3)cc2F)nc2ccc(Nc3cnn(C4CC4)c3)cn2c1=O", "RECORDED NUMBER": 30}
{"SMILES DATA": "N#Cc1cccc(C(=O)Nc2cc(-c3ccccc3)nn2-c2ccccc2)c1", "RECORDED NUMBER": 42}

Moving on to the next compound.
Query: Find the recorded Population Apoptotic (%) belonging to CC(/C=C1\SC(=S)N(CCCC(=O)Nc2ccc(C(=O)O)c(O)c2)C1=O)=C\c1ccccc1 and report it.
Reply: 44

====

System: Fibroblast
Test: Multiplex assay against human fibroblast
Type: toxicity, cell-based
Conditions: 12 h, 10 µM, compound concentration 10 uM, replicate 1
REPORTED METRIC: Population Pyknosed Nuclei (%)
One number for each entry, in %.

{"COMPOUND": "Oc1cccc(-c2nc(N3CCOCC3)c3oc4ncccc4c3n2)c1", "REPORTED METRIC": "Population Pyknosed Nuclei (%)", "UNITS OF MEASURE": "%", "RECORDED NUMBER": 30}
{"COMPOUND": "C=CC(=O)Nc1cc(-n2c(=O)ccc3cnc4ccc(-c5ccc(NS(C)(=O)=O)cc5)cc4c32)ccc1C", "REPORTED METRIC": "Population Pyknosed Nuclei (%)", "UNITS OF MEASURE": "%", "RECORDED NUMBER": 30}
{"COMPOUND": "c1ccc(-c2oc3ncnc(NC[C@@H]4CCCO4)c3c2-c2ccccc2)cc1", "REPORTED METRIC": "Population Pyknosed Nuclei (%)", "UNITS OF MEASURE": "%", "RECORDED NUMBER": 37}
{"COMPOUND": "N#Cc1cccc(C(=O)Nc2cc(-c3ccccc3)nn2-c2ccccc2)c1", "REPORTED METRIC": "Population Pyknosed Nuclei (%)", "UNITS OF MEASURE": "%", "RECORDED NUMBER": 42}

Quick one: give me Population Pyknosed Nuclei (%) for each item below, same order please.
1. CCCCN(CC)c1nc(C)nc2c1c(C)cn2-c1c(C)cc(C)cc1C.Cl
2. COc1cc(C)c(Sc2cnc(NC(=O)c3ccc(CNC(C)C(C)(C)C)cc3)s2)cc1C(=O)N1CCN(C(C)=O)CC1 (stereo unspecified)
3. CCOc1ccn(-c2ccc(F)cc2)c(=O)c1C(=O)Nc1ccc(Oc2ccnc(N)c2Cl)c(F)c1
4. Cl.Cn1c2c(c3ccc(Cl)c(Cl)c31)C(C#N)C1(CCNCC1)NC2=O (stereo unspecified)
5. CC(C)C[C@H](NC(=O)[C@H](Cc1ccccc1)NC(=O)CNC(=O)CNC(=O)[C@@H](N)Cc1ccc(O)cc1)C(=O)O
6. C[C@@H](Oc1cc(-n2cnc3ccc(CN4CCN(C)CC4)cc32)sc1C(N)=O)c1ccccc1C(F)(F)F

Reply:
1. 31
2. 14
3. 12
4. 14
5. 32
6. 30

Query: Look at this compound and give its reported Population Pyknosed Nuclei (%). NC(=O)c1ccc2nc(-c3ccc(C4(N)CCC4)cc3)c(-c3ccccc3)n2n1
Reply: 20

====

Tested on: Fibroblast
Assay: Multiplex assay against human fibroblast
Assay type: toxicity, cell-based
Settings: 12 h, 1 µM, compound concentration 1 uM, replicate 2
Hi there, I'd appreciate the recorded Population Mitochondria Different-Phenotype (%) for every entry that follows.
Give bare numbers, in %.

Worked examples follow.
{"COMPOUND": "CC(Cc1ccc(O)c(O)c1)C(C)Cc1ccc(O)c(O)c1 (stereo not drawn) [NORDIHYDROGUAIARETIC ACID]", "UNITS OF MEASURE": "%", "RECORDED NUMBER": 1}
{"COMPOUND": "N#Cc1cccc(C(=O)Nc2cc(-c3ccccc3)nn2-c2ccccc2)c1", "UNITS OF MEASURE": "%", "RECORDED NUMBER": 8}

Each of the following entries comes with a recorded value; kindly state Population Mitochondria Different-Phenotype (%) for each.
1. Cc1ccc(NC(=O)Nc2cc(C(F)(F)F)ccc2F)cc1Nc1ccc2c(c1)NC(=O)/C2=C\c1ccc[nH]1
2. CC[C@@H]1C(=O)N(C)c2cnc(Nc3ccc(C(=O)NC4CCN(C)CC4)cc3OC)nc2N1C1CCCC1 [BI-2536]
3. C[C@@H](Oc1cc(-n2cnc3ccc(CN4CCN(C)CC4)cc32)sc1C(N)=O)c1ccccc1C(F)(F)F [GSK-461364]
4. Cl.NC[C@@H]1O[C@H](C23CC4CC(CC(C4)C2)C3)Cc2c1ccc(O)c2O
5. Cc1ccc(S(=O)(=O)NC2c3ccccc3Oc3ccccc32)cc1

Reply:
1: 18; 2: 5; 3: 35; 4: 9; 5: 16

====

Test system: Fibroblast
Experiment: Multiplex assay against human fibroblast
Format: toxicity, cell-based
Conditions: 48 h, 10 µM, compound concentration 10 uM, replicate 2
Please respond with Condition met when measured Population Hoechst High Intensity Objects (%) is strictly beneath 30%, and with Condition not met in all other cases.

Worked examples, 5 molecules total:
{"MOLECULE": "CCCc1cc(C)[nH]c(=O)c1CNC(=O)c1cc(-c2ccc(N3CCN(C(C)C)CC3)nc2)cc2c1cnn2C(C)C", "MEASURED ON": "Fibroblast", "ASSIGNED CLASS": "Condition not met"}
{"MOLECULE": "CC(C)[C@H](CO)Nc1nc(Nc2cccc(Cl)c2)c2ncn(C(C)C)c2n1 [PURVALANOLA]", "MEASURED ON": "Fibroblast", "ASSIGNED CLASS": "Condition met"}
{"MOLECULE": "CCCCCNC(=N)N/N=C/c1c[nH]c2ccc(OC)cc12.O=C(O)/C=C\\C(=O)O [TEGASEROD MALEATE]", "MEASURED ON": "Fibroblast", "ASSIGNED CLASS": "Condition not met"}
{"MOLECULE": "Cc1ccc(S(=O)(=O)NC2c3ccccc3Oc3ccccc32)cc1", "MEASURED ON": "Fibroblast", "ASSIGNED CLASS": "Condition met"}
{"MOLECULE": "Oc1cccc(-c2nc(N3CCOCC3)c3oc4ncccc4c3n2)c1 [PI-103]", "MEASURED ON": "Fibroblast", "ASSIGNED CLASS": "Condition not met"}

Query: Just wondering, is Population Hoechst High Intensity Objects (%) of CC(Cc1ccc(O)c(O)c1)C(C)Cc1ccc(O)c(O)c1 (stereo not given) [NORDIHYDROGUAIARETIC ACID] below 30%?
Reply: Condition met

Query: Would you kindly verify if Population Hoechst High Intensity Objects (%) of Cc1c(P(=S)(c2ccccc2)c2ccccc2)n2ccccc2[n+]1C/C=C/c1ccccc1.[Br-] is strictly less than 30%?
Reply: Condition not met

Query: Input c1ccc(-c2oc3ncnc(NC[C@@H]4CCCO4)c3c2-c2ccccc2)cc1 ; condition: Population Hoechst High Intensity Objects (%) strictly below 30%. Does it hold?
Reply: Condition met

Query: In plain terms, does CC(/C=C1\SC(=S)N(CCCC(=O)Nc2ccc(C(=O)O)c(O)c2)C1=O)=C\c1ccccc1 come in under 30% for Population Hoechst High Intensity Objects (%)?
Reply: Condition met

Query: Identify whether the molecule C=CC(=O)Nc1cc(-n2c(=O)ccc3cnc4ccc(-c5ccc(NS(C)(=O)=O)cc5)cc4c32)ccc1C records Population Hoechst High Intensity Objects (%) below 30%.
Reply: Condition met

====

Give measured Population Fragmented Nuclei (%) for each item. Keep answers brief.
System: HEK-293T
Test: Multiplex assay against HEK293T
Format: toxicity, cell-based
Conditions: human, 24 h, 1 µM, compound concentration 1 uM, replicate 2
Give bare numbers, in %.

Worked cases, answers included:
{"SMILES DATA": "Cl.NC[C@@H]1O[C@H](C23CC4CC(CC(C4)C2)C3)Cc2c1ccc(O)c2O", "Population Fragmented Nuclei (%)": 4}
{"SMILES DATA": "Cc1ccc(NC(=O)Nc2cc(C(F)(F)F)ccc2F)cc1Nc1ccc2c(c1)NC(=O)/C2=C\\c1ccc[nH]1", "Population Fragmented Nuclei (%)": 4}

Below: the item to evaluate.
Query: If you can, please state the reported Population Fragmented Nuclei (%) value of CCOC(=O)CCNc1cc(N2CCc3ccccc3CC2)nc(-c2ccccn2)n1 .
Reply: 23

====

System: Fibroblast
Test: Multiplex assay against human fibroblast
Assay type: toxicity, cell-based
Settings: 24 h, 1 µM, compound concentration 1 uM, replicate 1
Please provide measured Population Membrane Permeable-Phenotype (%) for the entries that follow.
Answers are plain numbers, in %.

Solved cases below.
{"COMPOUND": "CC(C)c1cc(Nc2nc(N3CCC[C@H](N)C3)ncc2C(N)=O)cc(C(C)C)n1", "UNITS OF MEASURE": "%", "RECORDED NUMBER": 17}
{"COMPOUND": "Cl.NC[C@@H]1O[C@H](C23CC4CC(CC(C4)C2)C3)Cc2c1ccc(O)c2O", "UNITS OF MEASURE": "%", "RECORDED NUMBER": 14}
{"COMPOUND": "CC(Cc1ccc(O)c(O)c1)C(C)Cc1ccc(O)c(O)c1 (centres undefined) [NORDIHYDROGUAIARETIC ACID]", "UNITS OF MEASURE": "%", "RECORDED NUMBER": 22}
{"COMPOUND": "Cc1ccc(NC(=O)Nc2cc(C(F)(F)F)ccc2F)cc1Nc1ccc2c(c1)NC(=O)/C2=C\\c1ccc[nH]1", "UNITS OF MEASURE": "%", "RECORDED NUMBER": 51}
{"COMPOUND": "Cc1c(Nc2ccc(S(=O)(=O)N3CCN(C)CC3)cc2F)nc2ccc(-c3cnn(C4CC4)c3)cn2c1=O", "UNITS OF MEASURE": "%", "RECORDED NUMBER": 5}
{"COMPOUND": "Oc1cccc(-c2nc(N3CCOCC3)c3oc4ncccc4c3n2)c1", "UNITS OF MEASURE": "%", "RECORDED NUMBER": 18}
{"COMPOUND": "CCCCCNC(=N)N/N=C/c1c[nH]c2ccc(OC)cc12.O=C(O)/C=C\\C(=O)O [TEGASEROD MALEATE]", "UNITS OF MEASURE": "%", "RECORDED NUMBER": 15}
{"COMPOUND": "CC(C)C[C@H](NC(=O)[C@H](Cc1ccccc1)NC(=O)CNC(=O)CNC(=O)[C@@H](N)Cc1ccc(O)cc1)C(=O)O", "UNITS OF MEASURE": "%", "RECORDED NUMBER": 23}

Query: // Population Membrane Permeable-Phenotype (%) lookup, key: Cc1c(P(=S)(c2ccccc2)c2ccccc2)n2ccccc2[n+]1C/C=C/c1ccccc1.[Br-]
Reply: 5
